target: human OT7T175 (metastin receptor) (human, UniProt Q969F8 1-398)
Sequence (Q969F8 whole entry L364H): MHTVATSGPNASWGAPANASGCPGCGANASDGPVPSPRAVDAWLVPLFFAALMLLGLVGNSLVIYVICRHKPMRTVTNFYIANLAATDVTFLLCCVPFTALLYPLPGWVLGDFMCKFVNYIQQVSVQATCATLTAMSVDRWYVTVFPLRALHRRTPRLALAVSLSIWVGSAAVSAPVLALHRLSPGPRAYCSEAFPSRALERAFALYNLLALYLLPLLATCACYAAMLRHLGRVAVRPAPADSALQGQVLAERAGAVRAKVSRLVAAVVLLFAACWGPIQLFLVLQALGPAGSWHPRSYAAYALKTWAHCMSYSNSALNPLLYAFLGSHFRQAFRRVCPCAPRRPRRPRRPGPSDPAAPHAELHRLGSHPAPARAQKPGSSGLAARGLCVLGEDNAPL
testMethodNotes: cell-based or functional assay
Square brackets hold non-standard residues; d marks the D form. Ends that are not written are not given here. Arg(Me) = CNC(=N)NCCC[C@H](N)C(=O)O; azaGly = NNC(=O)O
Reported intracellular Ca ion level-increasing activity (FLIPR) values for a set of binders
quantityMeasured: intracellular Ca ion level-increasing activity (FLIPR)

[[record]]
binder = "[dY][dH]WNSF[azaGly]L[Arg(Me)]F-NH2 [Compound No. 288: [D-Tyr1,D-His2,AzaGly7,Arg(Me)9]MS10]"
measured = "1 specific activity to metastin (1-54)"

[[record]]
binder = "WNSF[azaGly]L[Arg(Me)]F-NH2 (N-terminus assumed; SMILES CNC(=N)NCCC[C@H](NC(=O)[C@H](CC(C)C)NC(=O)NNC(=O)[C@H](Cc1ccccc1)NC(=O)[C@H](CO)NC(=O)[C@H](CC(N)=O)NC(=O)[C@@H](N)Cc1c[nH]c2ccccc12)C(=O)N[C@@H](Cc1ccccc1)C(N)=O) [Compound No. 271: des(1-2)-[AzaGly7,Arg(Me)9]MS10]"
measured = "1 specific activity to metastin (1-54)"

